- assayedSystem: LXRβ (Homo sapiens, UniProt P55055)
- Construct: Co-transfection expression plasmids, comprising full-length LXRα (pCMX-h LXRα[…] or LXRβ (pCMX-hLXRβ)); expressed in transfected cells; host or cells: CV-1 African Green Monkey Kidney Cells
- Sequence (P55055 whole entry): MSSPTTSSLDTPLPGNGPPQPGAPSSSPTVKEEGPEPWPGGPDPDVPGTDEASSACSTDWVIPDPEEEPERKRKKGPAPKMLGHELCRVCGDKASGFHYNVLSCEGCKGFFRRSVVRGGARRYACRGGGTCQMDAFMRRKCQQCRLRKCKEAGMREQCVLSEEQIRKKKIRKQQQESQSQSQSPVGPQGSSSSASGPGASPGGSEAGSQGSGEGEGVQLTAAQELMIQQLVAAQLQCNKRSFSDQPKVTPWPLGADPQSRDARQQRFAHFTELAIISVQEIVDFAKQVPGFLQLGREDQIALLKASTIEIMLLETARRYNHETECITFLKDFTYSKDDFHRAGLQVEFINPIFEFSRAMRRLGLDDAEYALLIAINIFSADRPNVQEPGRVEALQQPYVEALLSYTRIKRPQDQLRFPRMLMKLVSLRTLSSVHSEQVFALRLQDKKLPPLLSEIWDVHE
- Sequence (P19793 whole entry partner): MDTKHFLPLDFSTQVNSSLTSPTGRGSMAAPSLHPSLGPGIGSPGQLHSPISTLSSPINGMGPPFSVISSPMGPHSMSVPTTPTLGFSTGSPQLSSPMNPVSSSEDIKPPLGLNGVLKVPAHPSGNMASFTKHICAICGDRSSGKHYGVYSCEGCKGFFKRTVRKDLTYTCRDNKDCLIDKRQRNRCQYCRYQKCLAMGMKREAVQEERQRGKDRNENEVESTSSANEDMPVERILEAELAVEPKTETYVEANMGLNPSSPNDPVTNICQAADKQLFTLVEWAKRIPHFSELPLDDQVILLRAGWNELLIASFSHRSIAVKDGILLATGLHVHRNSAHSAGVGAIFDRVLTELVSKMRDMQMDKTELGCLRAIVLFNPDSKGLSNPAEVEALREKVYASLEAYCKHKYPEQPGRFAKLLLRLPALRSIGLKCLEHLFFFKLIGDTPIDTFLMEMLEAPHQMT
- procedureDetails: Co-transfection assay (LXRE luciferase reporter), LXRβ
- Format: cell-based
- conditionParameters: LXRβ co-transfection; relative to high control 1-(2,4-difluorobenzyl)-2-oxo-6-(4-phenoxyphenyl)-4-(trifluoromethyl)-1,2-dihydropyridine-3-carbonitrile; read-out: % Efficacy
recordedEndpoint: Emax (%)
Reply with just the number (in %).

Answered examples (5):
COCc1ccc(-c2ccc(-n3cc(C(F)(F)F)nc3C)c(-n3nncc3-c3ccc(OC(F)(F)F)cc3)c2)cc1S(C)(=O)=O [Example 89]; 83
Cc1nc(-c2cc(-c3cc(F)c(CO)c(S(C)(=O)=O)c3)ccc2-n2cc(C(F)(F)F)nc2C)c(-c2cc(F)cc(F)c2)o1 [Example 448]; 58
Cc1nc(C(F)(F)F)cn1-c1ccc(-c2cc(F)c(CO)c(S(C)(=O)=O)c2)cc1-c1nc(C2CC2)oc1-c1ccc2c(c1)OC(F)(F)O2 [Example 483]; 66
Cc1nc(Cl)cn1-c1ccc(-c2cc(F)c(CO)c(S(C)(=O)=O)c2)cc1-n1nncc1-c1ccc(OC(F)(F)F)cc1 [Example 147]; 76
Cc1nc(C(F)(F)F)cn1-c1ccc(-c2cc(F)c(CO)c(S(C)(=O)=O)c2)cc1-n1nncc1-c1ccc2c(c1)OC(F)(F)O2 [Example 52]; 82

For record COc1ncc(-c2oc(C)nc2-c2cc(-c3cc(F)c(CO)c(S(C)(=O)=O)c3)ccc2-n2cc(C(F)(F)F)nc2C)cn1 [Example 415] the listed Emax is 86

---

- assayedSystem: LXRβ (Homo sapiens, UniProt P55055)
- Construct: Co-transfection expression plasmids, comprising full-length LXRα (pCMX-h LXRα[…] or LXRβ (pCMX-hLXRβ))
- procedureDetails: Co-transfection assay (LXRE luciferase reporter), LXRβ
- conditionParameters: CV-1 cells transfected with pCMX-hLXRβ and LXREx1-Tk-Luciferase; 20 hours incubation
Binarize EC50 at 300 nM; below is label 1, at or above is label 0.

These solved cases illustrate the format of a correct answer.
Cc1nc(C(F)(F)F)cn1-c1ccc(-c2cccc(C(C)(C)C(=O)O)c2)cc1-n1nncc1-c1ccc(OC(F)(F)F)cc1; label 0
C=Cc1nc(-c2cc(-c3cccc(S(C)(=O)=O)c3)ccc2-n2cc(C(F)(F)F)nc2C)c(-c2ccc3c(c2)OC(F)(F)O3)o1; label 1
Cc1nc(-c2cc(-c3cccc(S(C)(=O)=O)c3)ccc2-n2cc(C(F)(F)F)nc2C)c(-c2ccc3ccccc3c2)o1; label 1
Cc1nc(C(F)(F)F)cn1-c1ccc(-c2cccc(S(C)(=O)=O)c2)cc1-n1nncc1-c1cc(F)c(F)c(F)c1; label 0
Cc1nc(C(F)(F)F)cn1-c1ccc(-c2cccc(S(C)(=O)=O)c2)cc1-c1oc(CCN(C)C)nc1-c1ccc(OC(F)(F)F)cc1; label 0

Criterion: EC50 strictly below 300 nM. Is it met by CNS(=O)(=O)c1cccc(-c2ccc(-n3cc(C(F)(F)F)nc3C)c(-c3nc(C)oc3-c3ccc(OC(F)F)cc3)c2)c1 ?
label 1

In the record for Cc1cc(-c2cc(-c3cccc(S(C)(=O)=O)c3)ccc2-n2cc(C(F)(F)F)nc2C)n(-c2ccc(OC(F)(F)F)cc2)n1 , is EC50 less than 300 nM?
label 1

Bench note: check whether Cc1nc(C(F)(F)F)cn1-c1ccc(-c2cccc(S(C)(=O)=O)c2)cc1-n1nncc1-c1ccc(Cl)c(C#N)c1 shows EC50 below 300 nM
label 0

# TODO verify EC50 < 300 nM strictly for this compound: Cc1nc(C(F)(F)F)cn1-c1ccc(-c2cc(F)c(CO)c(S(C)(=O)=O)c2)cc1-n1nncc1-c1ccc(OC(F)(F)F)c(Cl)c1
label 1

---

- assayedSystem: LXRβ (Homo sapiens, UniProt P55055)
- Construct: Co-transfection expression plasmids, comprising full-length LXRα (pCMX-h LXRα[…] or LXRβ (pCMX-hLXRβ))
- procedureDetails: Co-transfection assay (LXRE luciferase reporter), LXRβ
- conditionParameters: CV-1 cells transfected with pCMX-hLXRβ and LXREx1-Tk-Luciferase; 20 hours incubation
recordedEndpoint: EC50 (nM)
Record the value in nM, omitting the unit from your answer.

Cc1nc(-c2cc(-c3cc(F)c(CO)c(S(C)(=O)=O)c3)ccc2-n2cc(C(F)(F)F)nc2C)c(-c2cccc(OC(F)(F)F)c2)o1; 38
Cc1nc(-c2ccc3c(c2)OC(F)(F)O3)c(-c2cc(-c3cc(Cl)c(CO)c(S(C)(=O)=O)c3)ccc2-n2cc(C(F)(F)F)nc2C)o1; 203

We now examine a further compound.
Item: COc1ccc(-c2cnnn2-c2cc(-c3cccc(S(C)(=O)=O)c3)ccc2-n2cc(C(F)(F)F)nc2C)cc1OC(F)F | System: LXRβ (Homo sapiens, UniProt P55055) | EC50: 1060

---

- assayedSystem: LXRβ (Homo sapiens, UniProt P55055)
- Construct: Co-transfection expression plasmids, comprising full-length LXRα (pCMX-h LXRα[…] or LXRβ (pCMX-hLXRβ)); expressed in transfected cells; host or cells: CV-1 African Green Monkey Kidney Cells
- procedureDetails: Co-transfection assay (LXRE luciferase reporter), LXRβ
- Type: cell-based
- conditionParameters: LXRβ co-transfection; relative to high control 1-(2,4-difluorobenzyl)-2-oxo-6-(4-phenoxyphenyl)-4-(trifluoromethyl)-1,2-dihydropyridine-3-carbonitrile; read-out: % Efficacy
- Protocol: To measure the ability of compounds to activate or inhibit the transcriptional activity of LXR in a cell based assay, the co-transfection assay was used. It has been shown that LXR functions as a heterodimer with RXR. […] Treatment of transfected cells with an LXR agonist increases the transcriptional activity of LXR, which is measured by an increase in luciferase activity. […]
recordedEndpoint: Emax (%)
Dear colleague, please return just the value in %, with no unit written.

Recorded Emax, per entry:
Cc1nc(C(F)F)c(C)n1-c1ccc(-c2cc(F)c(CO)c(S(C)(=O)=O)c2)cc1-n1nncc1-c1ccc(Cl)cc1; 37
Cc1nc(-c2cc(-c3cc(F)c(CO)c(S(C)(=O)=O)c3)ccc2-n2cc(C(F)(F)F)nc2C)c(-c2ccc(OCC(F)F)c(F)c2)o1; 92
Cc1nc(-c2cc(-c3cccc(C(=O)N(C)C)c3)ccc2-n2cc(C(F)(F)F)nc2C)c(-c2ccc(OC(F)F)c(F)c2)o1; 58
Cc1cn(-c2ccc(-c3cc(F)c(CO)c(S(C)(=O)=O)c3)cc2-n2nncc2-c2ccc(OC(F)(F)F)cc2)c(C)n1; 96
Cc1nc(-c2cc(-c3cccc(S(C)(=O)=O)c3)ccc2-n2cc(C(F)(F)F)nc2C)c(-c2ccc(Cl)nc2Cl)o1; 94

// below: Emax requested for another compound
Reading of Emax for CCOc1ncc(-c2oc(C)nc2-c2cc(-c3cc(F)c(CO)c(S(C)(=O)=O)c3)ccc2-n2cc(C(F)(F)F)nc2C)cc1F with LXRβ (Homo sapiens, UniProt P55055): 50

---

- assayedSystem: LXRβ (Homo sapiens)
- Construct: Co-transfection expression plasmids, comprising full-length LXRα (pCMX-h LXRα[…] or LXRβ (pCMX-hLXRβ))
- procedureDetails: Co-transfection assay (LXRE luciferase reporter), LXRβ
- conditionParameters: CV-1 cells transfected with pCMX-hLXRβ and LXREx1-Tk-Luciferase; 20 hours incubation
recordedEndpoint: pEC50
Would you please state pEC50, meaning minus log10 of the concentration in mol/L, as a bare number?

As a guide, the following entries are already answered.
Cc1nc(-c2cc(-c3cc(F)c(CO)c(S(C)(=O)=O)c3)ccc2-n2cc(C(F)(F)F)nc2C)c(-c2ccc(OC3CCCCC3)nc2)o1; 6.89
Cc1nc(C(F)(F)F)cn1-c1ccc(-c2cc(F)c(CO)c(S(C)(=O)=O)c2)cc1-n1nncc1-c1ccc(Cl)c(Cl)c1; 7.07
Cc1nc(-c2cc(-c3cc(F)c(CO)c(S(C)(=O)=O)c3)ccc2-n2cc(C(F)(F)F)nc2C)c(-c2ccc3c(c2)C(O)C(F)(F)O3)o1 (centres unmarked); 6.09
CS(=O)(=O)c1cccc(-c2cc(F)c(-n3cnc(C(F)(F)F)c3)c(-n3nncc3-c3ccc(Cl)cc3Cl)c2)c1; 6.34

# pEC50 (compound: Cc1nc(C(F)F)cn1-c1ccc(-c2cccc(S(C)(=O)=O)c2)cc1-n1nncc1-c1ccc2c(c1)OC(F)(F)O2 ) is 6.11

response.value for Cc1nc(C(F)(F)F)cn1-c1ccc(-c2cccc(S(C)(=O)=O)c2)cc1-c1ocnc1Cc1ccc(Cl)cc1 (field: pEC50) = 6.60

Lookup result for Cc1nc(C(F)(F)F)c(Cl)n1-c1ccc(-c2cccc(S(C)(=O)=O)c2)cc1-c1cnnn1-c1ccc(Cl)cc1 ; measured pEC50: 6.62

Entry under test: Cc1nc(-c2cc(-c3cc(F)c(CO)c(S(C)(=O)=O)c3)ccc2-n2cc(C(F)(F)F)nc2C)c(-c2ccc(OC(F)F)cc2Cl)o1 . Its pEC50 was 7.60

Reported pEC50 ( Cc1nc(C(F)(F)F)cn1-c1ccc(-c2cccc(S(C)(=O)=O)c2)cc1-n1nncc1-c1ccc2c(c1)OCO2 ) = 6.22

Recorded result, Cc1nc(C(F)(F)F)cn1-c1ccc(-c2cccc(S(C)(=O)=O)c2)cc1-c1nc(CC(C)O)oc1-c1ccc(OC(F)(F)F)cc1 (centres unmarked) , pEC50: 6.55

Short answer for Cc1nc(-c2cc(-c3cc(F)c(CO)c(S(C)(=O)=O)c3)ccc2-n2cc(C(F)(F)F)nc2C)c(-c2ccc(Cl)nc2)o1 : pEC50 was 6.28

The reported pEC50 of the compound Cc1nc(C(F)(F)F)cn1-c1c(F)cc(-c2cccc(S(=O)(=O)NCCO)c2)cc1-n1nncc1-c1ccc(OC(F)(F)F)cc1 was 5.90

Note to self: pEC50 recorded for Cc1nc(-c2cc(-c3cc(F)c(CO)c(S(C)(=O)=O)c3)ccc2-n2cc(C(F)(F)F)nc2C)c(-c2ccc(Cl)cc2F)o1 was 7.49

Cc1nc(C(F)(F)F)cn1-c1ccc(-c2cccc(C(C)(C)C(N)=O)c2)cc1-n1nncc1-c1ccc(OC(F)(F)F)cc1 yielded pEC50 of 6.25

The value of pEC50 measured for the compound Cc1nc(C(F)(F)F)cn1-c1ccc(-c2cccc(S(C)(=O)=O)c2)cc1-c1oc(CCO)nc1-c1ccc(Cl)cc1 turned out to be 6.11

The measured pEC50 associated with Cc1nc(C(F)(F)F)cn1-c1ccc(-c2cc(F)c(CO)c(S(C)(=O)=O)c2)cc1-c1nc(C(C)(C)CO)oc1-c1ccc(OC(F)(F)F)cc1 reads 6.88

response.value for Cc1nc(-c2ccc(OC(F)(F)F)cc2)c(-c2cc(-c3cccc(S(C)(=O)=O)c3)ccc2-n2cc(C(F)(F)F)nc2C)o1 (field: pEC50) = 7.27

Recorded result, Cc1nc(C(F)(F)F)cn1-c1ccc(-c2cccc(S(C)(=O)=O)c2)cc1-n1nncc1-c1ccc(C(C)C)cc1 , pEC50: 6.33

For reference, reported pEC50 for Cc1nc(-c2cc(-c3cccc(S(C)(=O)=O)c3)ccc2-n2cc(C(F)(F)F)nc2C)c(-c2ccc(C)c(F)c2)o1 stands at 7.04

For reference, reported pEC50 for Cc1nc(C(F)(F)F)cn1-c1ccc(-c2cccc(S(C)(=O)=O)c2)cc1-n1nncc1-c1ccc(F)c(Cl)c1 stands at 6.19
